These measurements were taken from ChEMBL document CHEMBL1759891.

# Test Target: Beta-secretase 1 (Homo sapiens)
# Method Notes: Inhibition of human BACE-1
pIC50: −log10 of the molar value.
Decide by pIC50: equal to or exceeding 6 means True, less means False.

Compound | Class Name
CC(C)(C)c1cccc(CN[C@H]2CS(=O)(=O)C[C@@H](Cc3ccc(O)c(Br)c3)[C@@H]2O)c1 | True
CC(C)c1ccnc(CN[C@H]2CS(=O)(=O)C[C@@H](Cc3ccc(O)c(Br)c3)[C@@H]2O)c1 | False
CCCCc1cc(C[C@@H]2CS(=O)(=O)C[C@H](NCc3cccc(C(C)C)c3)[C@H]2O)ccc1O | True
Cc1cccc(Cc2cc(C[C@@H]3CS(=O)(=O)C[C@H](NCc4cccc(C(C)C)c4)[C@H]3O)ccc2O)c1 (racemic) | False

----------
concentration reference
# Test system: Plasma
# Method Notes: Drug level in plasma of mouse at 2 umol/kg, iv
# Assay type: ADME
# Experimental Context: read-out: Drug uptake

Mol | concentration / nM
CCCN1C(=O)OC[C@@H]1Cc1cc(C[C@@H]2CS(=O)(=O)C[C@H](NCc3cccc(C(C)C)c3)[C@H]2O)ccc1O | 670
CC(C)(C)c1cccc(CN[C@H]2CS(=O)(=O)C[C@@H](Cc3ccc(O)c(Br)c3)[C@@H]2O)c1 | 320
CC(C)c1cccc(CN[C@H]2CS(=O)(=O)C[C@@H](Cc3ccc(O)c(Br)c3)[C@@H]2O)c1 | 1030

----------
# Test Target: Beta-secretase 1 (Homo sapiens)
# Method Notes: Inhibition of human BACE-1
pIC50: −log10 of the molar value.

Molecule | pIC50
O=S1(=O)C[C@@H](Cc2ccc(O)c(Br)c2)[C@H](O)[C@@H](NCc2cc(Cl)cc(Cl)c2)C1 | 5.38
CC(C)c1cccc(CN[C@H]2CS(=O)(=O)C[C@@H](Cc3ccccc3)[C@@H]2O)c1 (racemic) | 5.96
CCCOc1cccc(C[C@@H]2CS(=O)(=O)C[C@H](NCc3cccc(C(C)C)c3)[C@H]2O)c1 (racemic) | 5.64
CC(=O)N[C@@H](Cc1cc(F)cc(F)c1)[C@H](O)CNCc1cccc(C(C)C)c1 | 5.49

----------
# Test Target: Beta-secretase 1 (Homo sapiens, UniProt P56817)
# Sequence (P56817 whole entry): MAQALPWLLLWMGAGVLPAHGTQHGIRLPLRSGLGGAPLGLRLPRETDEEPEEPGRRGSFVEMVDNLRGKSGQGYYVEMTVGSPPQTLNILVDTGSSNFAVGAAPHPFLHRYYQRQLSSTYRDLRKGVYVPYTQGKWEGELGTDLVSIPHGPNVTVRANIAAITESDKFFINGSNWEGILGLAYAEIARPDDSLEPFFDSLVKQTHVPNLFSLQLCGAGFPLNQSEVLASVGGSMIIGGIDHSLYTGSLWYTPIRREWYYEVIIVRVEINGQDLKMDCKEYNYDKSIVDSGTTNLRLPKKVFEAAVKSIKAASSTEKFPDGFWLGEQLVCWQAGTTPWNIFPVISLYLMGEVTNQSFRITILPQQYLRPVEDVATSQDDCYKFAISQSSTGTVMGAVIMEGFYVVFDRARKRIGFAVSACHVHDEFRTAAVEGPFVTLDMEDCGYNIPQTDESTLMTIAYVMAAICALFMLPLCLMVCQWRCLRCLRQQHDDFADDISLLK
# Method Notes: Inhibition of human BACE-1-mediated amyloid beta 40 release in APP-transfected […] cells
# Format: cell-based
pIC50: −log10 of the molar value.
pIC50 reference

Mol | pIC50
CC(C)(C)c1cccc(CN[C@H]2CS(=O)(=O)C[C@@H](Cc3ccc(O)c(Br)c3)[C@@H]2O)c1 | 6.26
CC(C)c1cccc(CN[C@H]2CS(=O)(=O)C[C@@H](Cc3ccc(O)c(Br)c3)[C@@H]2O)c1 | 5.82
CC(C)Oc1cccc(CN[C@H]2CS(=O)(=O)C[C@@H](Cc3ccc(O)c(Br)c3)[C@@H]2O)c1 | 5.07

----------
# Test system: MDR1 (P-gp)
# Method Notes: Efflux ratio of permeability from basolateral to apical side to apical to basolateral side of dog MDCK cells expressing human MDR1
# Assay type: ADME, cell-based, Canis lupus familiaris

Compound | efflux ratio
CCCOc1cccc(C[C@@H]2CS(=O)(=O)C[C@H](NCc3cccc(C(C)C)c3)[C@H]2O)c1 (racemic) | 1.4
CNC(=O)Oc1ccc(C[C@@H]2CS(=O)(=O)C[C@H](NCc3cccc(C(C)C)c3)[C@H]2O)cc1Br | 23
CCCCc1cc(C[C@@H]2CS(=O)(=O)C[C@H](NCc3cccc(C(C)C)c3)[C@H]2O)ccc1O | 5.5
CCCOCc1cccc(C[C@@H]2CS(=O)(=O)C[C@H](NCc3cccc(C(C)C)c3)[C@H]2O)c1 (racemic) | 1.8
CC(=O)N[C@@H](Cc1cc(F)cc(F)c1)[C@H](O)CNCc1cccc(C(C)C)c1 | 18
CCCc1cc(C[C@@H]2CS(=O)(=O)C[C@H](NCc3cccc(C(C)C)c3)[C@H]2O)ccc1O | 4.4
CC(C)c1cccc(CN[C@H]2CS(=O)(=O)C[C@@H](Cc3ccc(O)c(CO)c3)[C@@H]2O)c1 | 17
CC(C)c1cccc(CN[C@H]2CS(=O)(=O)C[C@@H](Cc3ccccc3)[C@@H]2O)c1 (racemic) | 1.2
